Cited source: ChEMBL document CHEMBL1139876

# run_description: Solubility in 0.02 M hydrochloric acid buffer at pH 1.3
# Type: physicochemical
Overview of reported solubility across a group of compounds:
property_name: solubility (µg/mL)

{"smiles_structure": "N[C@@H](CCC(=O)N[C@@H](CS)C(=O)NCC(=O)N[C@@H](Cc1ccc(O)c(O)c1)C(=O)O)C(=O)O", "value_reported": 2150}
{"smiles_structure": "N[C@H](Cc1ccc(O)c(O)c1)C(=O)N[C@@H](CCC(=O)N[C@@H](CS)C(=O)NCC(=O)O)C(=O)O", "value_reported": 550}
{"smiles_structure": "COC(=O)CNC(=O)[C@H](CS)NC(=O)CC[C@H](NC(=O)[C@@H](Cc1ccc(O)c(O)c1)NC(C)=O)C(=O)OC", "value_reported": 2740}
{"smiles_structure": "COC(=O)[C@H](CCC(=O)N[C@@H](CS)C(=O)NCC(=O)N[C@@H](Cc1ccc(O)c(O)c1)C(=O)OC)NC(C)=O", "value_reported": 35100}
